Target: mTOR (Homo sapiens)
Assay: Kinase inhibition assay, P-33 labelled ATP phosphate transfer, mTOR
Type: biochemical
Conditions: read-out: mTOR(% Inh at 10 μM)
metricName: inhibition at 10 µM (%)
Express it in %; write the number only.

Please review the entries below; each comes with its answer.
# smilesString, reportedResult
measured = [
    ("O=c1nc(N2CCOCC2)[nH]c2c1cnn2C1CCCCC1", 11),
    ("O=c1nc(N2CCOCC2)[nH]c2c1cnn2-c1ccccn1", 0),
]

Challenge: May I ask what inhibition at 10 µM has been recorded for CCOC(=O)Cn1ncc2c(=O)nc(N3CCOCC3)[nH]c21 ?
Response given: 0

Challenge: Another molecule: O=c1nc(N2CCOCC2)[nH]c2c1cnn2-c1ccc2c(c1)OCCO2
Response given: 4.4

Challenge: Okay, and O=c1nc(N2CCOCC2)[nH]c2c1cnn2CCO ?
Response given: 0.5

Challenge: Same question for O=c1nc(N2CCOCC2)[nH]c2c1cnn2Cc1ccccc1 please.
Response given: 0
